Assay: Biodistribution of 99mTc(N)(X)(DTC)+ heterocomplexes in rats
Format: in vivo, male Spraque-Dawley rats (SD rats)
Conditions: 0 min after injection
Method: The biodistribution of a ^99mTc nitride heterocomplex represented by the general formula ^99mTc(N)(X)(Y) was investigated as follows: ^99mTc nitride heterocomplexes were synthesized using DTC as a bidentate ligand Y and each of the diphosphine compounds X described below, and the biodistribution in rats of each heterocomplex was investigated. […] The biodistribution was measured using male Spraque-Dawley rats (SD rats) weighing 200 to 250 g. […]
measured_attribute: Stomach % dose/g (% dose/g)

| compound | Stomach % dose/g (% dose/g) |
| --- | --- |
| CCCN1CC[P+](c2ccccc2)(c2ccccc2)[99Tc-2]2(#[N])([NH]N(C)C(SC)=[S+]2)[P+](c2ccccc2)(c2ccccc2)CC1 [^99mTc(N)(PNP1)(DTC)^+] | 0.337 |

[a] COCCN1CC[P+](c2ccccc2)(c2ccccc2)[99Tc-2]2(#[N])([NH]N(C)C(SC)=[S+]2)[P+](c2ccccc2)(c2ccccc2)CC1 [^99mTc(N)(PNP2)(DTC)^+]
[b] COCCC[P]1(CCCOC)CCN(CCOC)CC[P](CCCOC)(CCCOC)[99Tc+]12(#[N])[NH]N(C)C(SC)=[S]2 [^99mTc(N)(PNP3)(DTC)^+]
[c] CSC1=[S+][99Tc-2]2(#[N])([NH]N1C)[P+](c1ccccc1)(c1ccccc1)CCOCC[P+]2(c1ccccc1)c1ccccc1 [^99mTc(N)(POP)(DTC)^+]
QUERY: Ascending by Stomach % dose/g, please. Put the labels in the order asked and list them.
RESULT: c, a, b
